Catalogue of compounds with associated MTC
# Organism: Danio rerio
# PROTOCOL TEXT: Toxicity in 24 to 72 hrs post fertilized zebra fish embryo harboring fli1:EGFP
# Type: organism-based
# CONDITION PARAMETERS: zebrafish, in vivo

Completed entries (count: 4):
{"COMPOUND": "O=C(COc1c(O)cc2oc(-c3ccccc3)cc(=O)c2c1O)N1CCN(CCO)CC1", "ENDPOINT RESULT": "100 µM"}
{"COMPOUND": "CN1CCN(C(=O)COc2c(O)cc3oc(-c4ccccc4)cc(=O)c3c2O)CC1", "ENDPOINT RESULT": "15 µM"}
{"COMPOUND": "O=c1cc(-c2ccccc2)oc2cc(O)c(OCCCCO)c(O)c12", "ENDPOINT RESULT": "10 µM"}
{"COMPOUND": "O=C(COc1c(OCc2ccccc2)cc2oc(-c3ccccc3)cc(=O)c2c1O)N1CCC(O)CC1", "ENDPOINT RESULT": "25 µM"}

Provide measured MTC value, entry: O=C(O)CCC(=O)OCCOc1c(O)cc2oc(-c3ccccc3)cc(=O)c2c1O > 75 µM

Report MTC for COc1c(OCCCN(C)CCO)c(O)cc2oc(-c3ccccc3)cc(=O)c12 100 µM

Identify the reported MTC for the following entry. O=C(COc1c(OCc2ccccc2)cc2oc(-c3ccccc3)cc(=O)c2c1O)N1CCN(CCO)CC1 200 µM

Answer with the recorded MTC of O=c1cc(-c2ccccc2)oc2cc(O)c(O)c(O)c12 only. 0.5 µM

Check the records and state MTC for O=C(COc1c(O)cc2oc(-c3ccccc3)cc(=O)c2c1O)N1CCC(O)CC1 50 µM

Assign MTC to the following record: O=C(COc1c(O)cc2oc(-c3ccccc3)cc(=O)c2c1O)N(CCO)CCO > 200 µM

====

# Organism: Danio rerio
# PROTOCOL TEXT: Toxicity in 24 to 72 hrs post fertilized zebra fish embryo harboring fli1:EGFP
# Assay type: organism-based
# CONDITION PARAMETERS: zebrafish, in vivo
# binarize LC100: threshold 50 µM inclusive, high side T, low side F

Examples with answers:
{"COMPOUND": "O=C(COc1c(OCc2ccccc2)cc2oc(-c3ccccc3)cc(=O)c2c1O)N(CCO)CCO", "ANSWER LABEL": "T"}
{"COMPOUND": "O=C(COc1c(OCc2ccccc2)cc2oc(-c3ccccc3)cc(=O)c2c1O)NCCO", "ANSWER LABEL": "T"}

Continue with the compound presented below.
Given O=C(COc1c(O)cc2oc(-c3ccccc3)cc(=O)c2c1O)N(CCO)CCO , state whether its LC100 is at least 50 µM. T

====

# PROTOCOL TEXT: Toxicity index, ratio of MTC for 24 to 72 hrs post fertilized zebra fish embryo harboring fli1:EGFP to MEC for antiangiogenic activity in 24 to 72 hrs post fertilized zebra fish embryo harboring fli1:EGFP
# Type: organism-based, Danio rerio
# CONDITION PARAMETERS: fli1:EGFP transgenic, zebrafish, in vivo
EXPERIMENTAL READOUT: selectivity ratio
Returns: the value as a bare number; no unit string appended.

Below are worked cases with known answers.
{"COMPOUND": "O=c1cc(-c2ccccc2)oc2cc(O)c(OCC(O)CO)c(O)c12 (stereo unspecified)", "ENDPOINT RESULT": 1}
{"COMPOUND": "CCN(CC)C(=O)COc1c(O)cc2oc(-c3ccccc3)cc(=O)c2c1O", "ENDPOINT RESULT": 1}
{"COMPOUND": "O=c1cc(-c2ccccc2)oc2cc(O)c(OCCO)c(O)c12", "ENDPOINT RESULT": 2}
{"COMPOUND": "O=C(COc1c(OCc2ccccc2)cc2oc(-c3ccccc3)cc(=O)c2c1O)N1CCC(O)CC1", "ENDPOINT RESULT": 1}
{"COMPOUND": "O=C(COc1c(OCc2ccccc2)cc2oc(-c3ccccc3)cc(=O)c2c1O)N(CCO)CCO", "ENDPOINT RESULT": 1}

Annotate the compound COc1c(OCCCN(C)CCO)c(O)cc2oc(-c3ccccc3)cc(=O)c12 with its measured selectivity ratio. 1

Let me know recorded selectivity ratio for O=C(COc1c(OCc2ccccc2)cc2oc(-c3ccccc3)cc(=O)c2c1O)NCCO , thanks. 1

// Input: O=C(COc1c(O)cc2oc(-c3ccccc3)cc(=O)c2c1O)N1CCN(CCO)CC1 . Output its selectivity ratio only. 1

Annotate the compound O=C(COc1c(OCc2ccccc2)cc2oc(-c3ccccc3)cc(=O)c2c1O)N1CCNCC1 with its measured selectivity ratio. 5

Given O=C(COc1c(O)cc2oc(-c3ccccc3)cc(=O)c2c1O)NCCO , respond with its selectivity ratio. 1

Give selectivity ratio for the following compound: O=c1cc(-c2ccccc2)oc2cc(O)c(OCCCCO)c(O)c12 2

Output measured selectivity ratio for this item: O=C(COc1c(OCc2ccccc2)cc2oc(-c3ccccc3)cc(=O)c2c1O)N1CCOCC1 1

Consider the compound CN(C)CCNC(=O)COc1c(O)cc2oc(-c3ccccc3)cc(=O)c2c1O . State its measured selectivity ratio. 1

Read off the recorded selectivity ratio for O=c1cc(-c2ccccc2)oc2cc(OCCCO)c(O)c(O)c12 1

Reference source for all entries: ChEMBL document CHEMBL4229525
